Values were extracted from ChEMBL document CHEMBL1158120.

Assignment: determine reported IC50 for the given molecules.
System: A2780
assay-explanation: Cytotoxicity against human A2780 cells by MTT assay
Type: functional, cell-based

Under A2780: IC50 value of CCC(C)C(=O)O[C@H]1[C@H](OC(=O)/C=C/c2ccccc2)C(C)(C)C[C@H]2C3=CC[C@@H]4[C@@]5(C)CC[C@H](O[C@@H]6O[C@H](CO)[C@@H](O[C@@H]7O[C@@H](CO)[C@H](O)[C@H]7O)[C@H](O)[C@H]6O[C@@H]6O[C@H](CO)[C@@H](O)[C@H](O)[C@H]6O)C(C)(C)[C@@H]5CC[C@@]4(C)[C@]3(C)[C@@H](O)[C@@H](O)[C@]21CO (some centres not stated) [SYMPLOCOSOSIDE X] ? 1600 nM

Repeat with CCC(C)C(=O)O[C@H]1[C@H](OC(=O)c2ccccc2)C(C)(C)C[C@H]2C3=CC[C@@H]4[C@@]5(C)CC[C@H](O[C@@H]6O[C@H](C(=O)O)[C@@H](O[C@@H]7O[C@@H](CO)[C@H](O)[C@H]7O)[C@H](OC(C)=O)[C@H]6O[C@@H]6O[C@H](CO)[C@@H](O)[C@H](O)[C@H]6O)C(C)(C)[C@@H]5CC[C@@]4(C)[C@]3(C)[C@@H](O)[C@@H](O)[C@]21CO (some centres not stated) [SYMPLOCOSOSIDE P] 3300 nM

====

Tested on: A2780
assay-explanation: Cytotoxicity against human A2780 cells by MTT assay
Format: functional, cell-based
Assignment: determine reported IC50 for the given compounds.
Please respond with the number in µM and leave the unit unwritten.

Need IC50, item CCOC(=O)[C@H]1O[C@@H](O[C@H]2CC[C@]3(C)[C@H]4CC=C5[C@@H]6CC(C)(C)[C@@H](OC(=O)/C=C(/C)CCC=C(C)C)[C@H](OC(=O)C(C)CC)[C@]6(CO)[C@H](O)[C@H](O)[C@@]5(C)[C@]4(C)CC[C@H]3C2(C)C)[C@H](O[C@@H]2O[C@H](CO)[C@@H](O)[C@H](O)[C@H]2O)[C@@H](O)[C@@H]1O[C@@H]1O[C@@H](CO)[C@H](O)[C@H]1O (stereo partly drawn) [SYMPLOCOSOSIDE Q] 5.5

Repeat with CCC(C)C(=O)O[C@H]1[C@H](OC(=O)/C=C(\C)CCC=C(C)C)C(C)(C)C[C@H]2C3=CC[C@@H]4[C@@]5(C)CC[C@H](O[C@@H]6O[C@H](C(=O)O)[C@@H](O[C@@H]7O[C@@H](CO)[C@H](O)[C@H]7O)[C@H](OC(C)=O)[C@H]6O[C@@H]6O[C@H](CO)[C@@H](O)[C@H](O)[C@H]6O)C(C)(C)[C@@H]5CC[C@@]4(C)[C@]3(C)[C@@H](O)[C@@H](O)[C@]21CO (stereo partly drawn) [SYMPLOCOSOSIDE H] 1.4

====

Tested on: A549
assay-explanation: Cytotoxicity against human A549 cells by MTT assay
Format: functional, cell-based
Assignment: determine reported IC50 for the given compounds.

Need IC50, item CC(C)=CCC/C(C)=C\C(=O)O[C@H]1CC(C)(C)C[C@H]2C3=CC[C@@H]4[C@@]5(C)CC[C@H](O)C(C)(C)[C@@H]5CC[C@@]4(C)[C@]3(C)[C@@H](O)[C@@H](O)[C@@]12CO > 10 µM

Repeat with CCCCOC(=O)[C@H]1O[C@@H](O[C@H]2CC[C@]3(C)[C@H]4CC=C5[C@@H]6CC(C)(C)[C@@H](OC(=O)/C=C/c7ccccc7)[C@H](OC(=O)C(C)CC)[C@]6(CO)[C@H](O)[C@H](O)[C@@]5(C)[C@]4(C)CC[C@H]3C2(C)C)[C@H](O[C@@H]2O[C@H](CO)[C@@H](O)[C@H](O)[C@H]2O)[C@@H](O)[C@@H]1O[C@@H]1O[C@@H](CO)[C@H](O)[C@H]1O (stereo partly specified) [SYMPLOCOSOSIDE E] > 10 µM

Repeat with CCC(C)C(=O)O[C@H]1[C@H](OC(=O)/C=C(\C)CCC=C(C)C)C(C)(C)C[C@H]2C3=CC[C@@H]4[C@@]5(C)CC[C@H](O[C@@H]6O[C@H](C(=O)O)[C@@H](O)[C@H](O)[C@H]6O[C@@H]6O[C@H](CO)[C@@H](O)[C@H](O)[C@H]6O)C(C)(C)[C@@H]5CC[C@@]4(C)[C@]3(C)[C@@H](O)[C@@H](O)[C@]21CO (stereo partly specified) > 10 µM

Repeat with CC(=O)O[C@@H]1[C@@H](O[C@@H]2O[C@H](CO)[C@@H](O)[C@H](O)[C@H]2O)[C@H](O[C@H]2CC[C@]3(C)[C@H]4CC=C5[C@@H]6CC(C)(C)[C@@H](OC(=O)/C=C(/C)CCC=C(C)C)[C@H](OC(=O)c7ccccc7)[C@]6(CO)[C@H](O)[C@H](O)[C@@]5(C)[C@]4(C)CC[C@H]3C2(C)C)O[C@H](C(=O)O)[C@H]1O[C@@H]1O[C@@H](CO)[C@H](O)[C@H]1O [SYMPLOCOSOSIDE J] 3 µM

Repeat with CCC(C)C(=O)O[C@H]1[C@H](OC(=O)/C=C(/C)CCC=C(C)C)C(C)(C)C[C@H]2C3=CC[C@@H]4[C@@]5(C)CC[C@H](O[C@@H]6O[C@H](C(=O)OC)[C@@H](O[C@@H]7O[C@@H](CO)[C@H](O)[C@H]7O)[C@H](OC(C)=O)[C@H]6O[C@@H]6O[C@H](CO)[C@@H](O)[C@H](O)[C@H]6O)C(C)(C)[C@@H]5CC[C@@]4(C)[C@]3(C)[C@@H](O)[C@@H](O)[C@]21CO (stereo partly specified) [SYMPLOCOSOSIDE I] > 10 µM

Repeat with CCCCOC(=O)[C@H]1O[C@@H](O[C@H]2CC[C@]3(C)[C@H]4CC=C5[C@@H]6CC(C)(C)[C@@H](OC(=O)/C=C(/C)CCC=C(C)C)[C@H](OC(=O)C(C)CC)[C@]6(CO)[C@H](O)[C@H](O)[C@@]5(C)[C@]4(C)CC[C@H]3C2(C)C)[C@H](O[C@@H]2O[C@H](CO)[C@@H](O)[C@H](O)[C@H]2O)[C@@H](O)[C@@H]1O[C@@H]1O[C@@H](CO)[C@H](O)[C@H]1O (stereo partly specified) [SYMPLOCOSOSIDE C] > 10 µM
